Assignment: determine reported TGI for the given compounds.
- System: M14 melanoma
- method.description: NCI tumour cell line growth inhibition, 48 h

- compound: "COc1ccc2c(c1)C(=O)c1c-2c(Nc2ccc(Cl)cc2)nc2ccccc12"
  TGI: "> 100 µM"
- compound: "CCN(C(=O)c1cc(F)ccc1Oc1cncnc1N1CC2(CCN(CC3CCC(NS(=O)(=O)CC)CC3)CC2)C1)C(C)C (stereo not drawn)"
  TGI: "> 100 µM"

# get_value(readout='TGI', item= c1ccc2c(c1)ncn2C1CCCCO1 (stereo not drawn) )
> 100 µM

====

Kindly state TGI for each of the entries shown.
- Tested on: CCRF-CEM leukemia
- method.description: NCI tumour cell line growth inhibition, 48 h

Worked cases, TGI given:
- compound: "Cc1cc(Cc2c(F)c(F)c(C(c3cc(C)no3)c3c(F)c(F)c(F)c(F)c3F)c(F)c2F)on1 (configuration not stated)"
  TGI: "> 100 µM"
- compound: "CN(C)c1nncc2[nH]cnc12"
  TGI: "> 100 µM"
- compound: "COc1cc(OC)c(C2CC=Cc3c(OC)cc(OC)c(OC)c32)cc1OC (configuration not stated)"
  TGI: "> 100 µM"
- compound: "Cc1c2cnccc2c(C)c2c1c1ccccc1n2CCCCCCNCc1ccccc1"
  TGI: "5.13 µM"
- compound: "CC1C[C@@H]2C(=O)NC(=O)[C@@H]2c2c1c1ccccc1n2C (some centres not stated)"
  TGI: "> 100 µM"
- compound: "CCC1CCc2nc3sc(C(=O)Nc4cccc(F)c4)c(N)c3cc2C1 (configuration not stated)"
  TGI: "> 100 µM"

# query: TGI of entry `CSCCCNC(=O)c1csc(-c2csc(C(CNC(=O)OC(C)(C)C)CNC(=O)OC(C)(C)C)n2)n1`
44 µM

====

- System: HL-60(TB) leukemia
- method.description: NCI tumour cell line growth inhibition, 48 h
assay.endpoint: TGI

Go through the items and report each one's TGI.
1. O=C(NP(=O)(N1CC1)N1CC1)c1cc(I)ccc1I
2. CCOC(=O)C1=C(C)N(c2ccc(C)cc2)C2=C(C(=O)N(c3ccccc3)C2c2ccccc2)C1c1ccccc1 (stereo unspecified)
3. COc1cc(OC)c(C2CC=Cc3c(OC)cc(OC)c(OC)c32)cc1OC (stereo unspecified)

1: > 96.4 µM; 2: > 25 µM; 3: > 100 µM

====

- Tested on: KM12 colon
- method.description: NCI tumour cell line growth inhibition, 48 h
assay.endpoint: TGI

- line.notation: "CCc1cccc(C(C)C)c1N1C(=O)C(=O)C(c2nc3ccccc3s2)C(=O)C1=O"
  TGI: "> 50 µM"
- line.notation: "O=C(O)c1cccc(N=Nc2c(S(=O)(=O)O)ccc3c2C(=O)c2ccccc2C3=O)c1O"
  TGI: "> 100 µM"

Field: next compound
Reported TGI for `NC(=O)c1cc(-c2ccc(F)cc2)cc(-c2ccncc2)c1N` : what is it?
> 25 µM

====

- Tested on: KM12 colon
- method.description: NCI tumour cell line growth inhibition, 48 h
assay.endpoint: GI50

Examples from the recorded data:
- compound: "Cn1ccnc1C(=O)/C=C/c1ccccc1"
  obs.value: "3.06 µM"
- compound: "Cc1cccc2c(=O)c3c(sc12)c(NCCNCCO)nc1ccccc13"
  obs.value: "1.64 µM"
- compound: "COc1cc2c3c(n(CCCI)c(=O)c2cc1OC)-c1cc2c(cc1C3=O)OCO2"
  obs.value: "7.4 µM"

Recorded GI50 of N#CSCC1CC(O)(c2ccccc2)CC(c2ccc(F)cc2)O1 (centres undefined) , please.
1.63 µM

Data provenance: PubChem BioAssay (NCI)
